Could you please report measured pIC50 for the items listed next?
FYI, pIC50 means -log10 of a concentration in mol per litre.

Query for fructose-1,6-bisphosphatase (FBPase) (Rattus norvegicus, UniProt P19112): what pIC50 does the record show for Nc1ncnc2c1ncn2[C@@H]1O[C@H](COP(=O)(O)O)[C@@H](O)[C@H]1O [Adenosine 5′-monophosphate, reference compound] ?
4.31

Query for fructose-1,6-bisphosphatase (FBPase) (Rattus norvegicus, UniProt P19112): what pIC50 does the record show for O=C(/C=C/c1ccc(O)cc1)OC[C@H]1O[C@@H](Oc2c(-c3ccc(O)cc3)oc3cc(O)cc(O)c3c2=O)[C@H](OC(=O)/C=C/c2ccc(O)cc2)[C@@H](O)[C@@H]1O ?
4.15
